B1: 1-phosphatidylinositol 4,5-bisphosphate phosphodiesterase gamma-2, residues 772 to 827; numbered along this chain, P16885 (parent)
chain: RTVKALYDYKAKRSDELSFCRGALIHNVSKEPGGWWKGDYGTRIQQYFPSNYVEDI

Variants of: B1
assay overview: abundance fitness (aPCA) (normalised: wild type 0, dead -1); higher = more abundant; growth selection in yeast, the domain comes from the species named
condition set: Homo sapiens
Tag: label 1 if measured abundance fitness is not below -0.05, label 0 if it is.

{"macromolecule sequence": "RTVKALYDYKAKRSIELSFCRGALIHNVSKEPGGWWKGDYGTRIQQYFPSNYVEDI [D15I]", "assigned class": "label 1"}
{"macromolecule sequence": "RTVKALYDYKAKRSDELSFCRHALIHNVSKEPGGWWKGDYGTRIQQYFPSNYVEDI [G22H]", "assigned class": "label 0"}
{"macromolecule sequence": "RTVKALYDYKAKRSDELSFCRGALIHNVSKEPGGWWKGDYGDRIQQYFPSNYVEDI [T42D]", "assigned class": "label 1"}

Threshold query (abundance fitness >= -0.05) on RTVKALYDYKAKRSDELSFCRGALIHNVSKEPGGWWKGDYGTRIQQYFPSNYVESI [D55S]
label 0

Is abundance fitness at least -0.05? Consider RTVKALYDYKAKRSDELSFCRGALIHNVSKEPGGWWKGDYGTRIQQYTPSNYVEDI [F48T]
label 0

Could you verify whether the entry RTVKALYDYKAGRSDELSFCRGALIHNVSKEPGGWWKGDYGTRIQQYFPSNYVEDI [K12G] shows abundance fitness of no less than -0.05?
label 0

Please indicate if the recorded abundance fitness for RTVKALYDYKAKRSDELSFCRGALIHNVSKERGGWWKGDYGTRIQQYFPSNYVEDI [P32R] meets or exceeds -0.05.
label 0

Can RTVKALYDYKAKRSDELSFCRGALIHNVSKEPGGWWKGDYGTRIQQYFPSPYVEDI [N51P] be said to have abundance fitness at or above -0.05?
label 0

Does the reported abundance fitness for RTVKALYDYKAKRSDELSFCRGALIHNVSKEPGGWDKGDYGTRIQQYFPSNYVEDI [W36D] fall at or above the -0.05 mark?
label 0

# bool: abundance fitness of RTVKALYDYKAKRRDELSFCRGALIHNVSKEPGGWWKGDYGTRIQQYFPSNYVEDI [S14R] >= -0.05
label 1

Recorded values, source the Human Domainome abundance scans (Beltran et al. 2025).
